Just for reference, patent US20210253725A1 is where these values come from.

Reported ELISA [abs. corr.] by item:
- measured on: T1, CD27 protein (His-tagged, Sino Biological Inc. 10039-H08B1) (human, UniProt P26842 20-192)
- T1 construct: bought; coated onto ELISA plates; also called human CD27; recombinant protein; not shown: His tag
- T1 sequence (looked up): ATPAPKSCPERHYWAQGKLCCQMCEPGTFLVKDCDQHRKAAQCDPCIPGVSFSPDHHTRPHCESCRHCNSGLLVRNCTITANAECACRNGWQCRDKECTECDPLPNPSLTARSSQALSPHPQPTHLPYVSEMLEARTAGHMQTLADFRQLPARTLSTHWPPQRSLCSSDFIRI
- assay method text: ELISA on coated His-tagged CD27; note: test concentration or dose not given here

| binder | ELISA [abs. corr.] [abs. corr.] |
| --- | --- |
| P018.S.10.A.C05 (antibody, V domains shown, V regions on human Ig constant parts; also called AB27_173) VH: QSVEETGGRLVTPGTPLTLTCAASGVSLSGYYAMSWVRQAPGKGLEWIGYLDATGSTYYASWVKGRFIISRPSTTVDLQITSPTIEDTATYFCARGSYDGVGYNWGLWGQGTLVTVSS VL: DIVMTQTPASVSEPVGGTVTIKCQASESIYNGLAWYQQKPGQPPKRLIYGASTLTSGVPSRFKGSGSGTEFTLTISDLESDDAATYYCQSNYGSGSRSNYIFGGGTEVVVK | 3.14 |
| P018.S.10.A.G05 (antibody, V domains shown, V regions on human Ig constant parts; also called AB27_183) VH: QSVEESGGRLVTPGTPLTLTCTVSGFSLNNAHMCWVRQAPGKGLEWIGIIGASGSTYYASWAKGRFTISKTSTTVDLKMTSLTTEDTATYFCGRTDVGYTTANLWGQGTLVTVSS VL: DVVMTQTPASVSAAVGGTVTIKCQASQTISSYLSWYQQKPGQPPKRLIYSASTLASGVSSRFKGSGSGTQFTLTISDLESADAATYYCQAYDTTSGTDLWAFGGGTEVVVK | 3.42 |
| P018.S.07.A.H06 (antibody, V domains shown, V regions on human Ig constant parts; also called AB27_134) VH: QSLEESGGDLVQPGASLTLTCKASGIDLSSYWMCWVRQTPGKGLEWIGCIATYSSVTYYANWAKGRFTISKPSSTTVTLQMTSLTAADTATYFCARDPYSFNGSLFTLWGPGTLVTVSS VL: ALVMTQTASPVSAAVGGTVTIDCQASQNIGTYLAWYQQKPGQPPKLLIYTASSLASGVPSRFKGSGSGTQFTLTISDLESDDAATYYCAGYKNYNNDDNGFGGGTEVVVK | 3.35 |
